System: MS2 coat protein
Assay: apparent KD of MS2 coat protein, switch OFF state (with FMN for OFF switches, without FMN for ON switches); designed switch direction (-1 OFF switch, 1 ON switch): -1; higher = weaker reporter binding
Details: FMN input: 0 or 200 uM; Eterna round: R93 (includes R88 designs)
Param threshold (0.05 µM) applies to apparent KD of MS2 coat protein; output Met when value >= threshold, Not met when value < threshold.

Worked cases, answers included:
Problem: Answer whether apparent KD of MS2 coat protein of AACAUGUGAGGAUAUAAAAUGAAUAUAAAUUAUUAUCUUGAUUAGAAGGCACAUGAGGAUCACCCAUGUCUGAA [E4-1.2] is greater than or equal to 0.05 µM.
Result: Not met

Problem: Answer whether apparent KD of MS2 coat protein of AUAGUACAUGAGGAUCACCCAUGUCAGGAUAUUGGAUAUGACAUAAAAAAAAUGUUAACGAGAAGGGACUAUAA [EX1 Malc#16] is greater than or equal to 0.05 µM.
Result: Not met

Problem: Answer whether apparent KD of MS2 coat protein of CUCUAGUCAGGAUAUGCAUGAAAUGAAGUGAAAGAAAAGAAGCAGAAGGGACAUGAGGAUCACCCAUGUUAGAA [EteRNA is fun!] is greater than or equal to 0.05 µM.
Result: Not met

Further cases:
Problem: Answer whether apparent KD of MS2 coat protein of AUAAUCCUAGGAUAUACAUGGAUAUACAUUCAUGUGGACCUACAUGAGGAUCACCCAUGUAGAAGGAGGAUGAA [Mat - Same state - Mayanna Mod - D138] is greater than or equal to 0.05 µM.
Result: Not met

Problem: Answer whether apparent KD of MS2 coat protein of AAAAAACAUGAGGAUCACCCAUGUAAGGAUAUACAAAACCCAUAUAAAAAGGGAAAAAGUAGAAGGUGCAAAAA [wbt round 1 mod 7] is greater than or equal to 0.05 µM.
Result: Not met

Problem: Answer whether apparent KD of MS2 coat protein of AAGAAUGGAGGAUAUACAUGAGGAUCACCCAUGUAAAAGAAAGAAGGGAAAGAGAAAAGUAGAAGGCCAAAGAA [Khuinefertemre Taharqa] is greater than or equal to 0.05 µM.
Result: Met

Problem: Answer whether apparent KD of MS2 coat protein of AUAGGCCUAGGAUAUACAUGAGGAUCACCCAUGUUAACACUUCAAUCAAGUUAAUAGUGUAGAAGGAGGAAUAA [JR_Exc003_Sub308] is greater than or equal to 0.05 µM.
Result: Not met

Problem: Answer whether apparent KD of MS2 coat protein of CUCUUGUCAGGAUAUCAAAGAAAAGAAAAGAAAGAAAAGAAUGAGAAGGGACAUGAGGAUCACCCAUGUAAGAA [EteRNA is fun!] is greater than or equal to 0.05 µM.
Result: Not met

Problem: Answer whether apparent KD of MS2 coat protein of CUCUUGUGAGGAUAUCUAAGAAAAGAAGAGAAAGAAAAGAAAGAGAAGGCACAUGAGGAUCACCCAUGUAAGAA [EteRNA is fun!] is greater than or equal to 0.05 µM.
Result: Met

Problem: Answer whether apparent KD of MS2 coat protein of UAGAUACAUGAGGAUCACCCAUGUGAGGAUAUCGUUUGUACUAAUCUUUUAGUAUUUUCGAGAAGGCACAUAUA [Ex1Try2_Neo] is greater than or equal to 0.05 µM.
Result: Met

Problem: Answer whether apparent KD of MS2 coat protein of AAGAAGAGAGGAUAUACAUGAGGAUCACCCAUGUAAAAGAAAGAAAGGGAAAAGAAAAGUAGAAGGCUCAAGAA [Neferkare-setpenre Ramesses IX] is greater than or equal to 0.05 µM.
Result: Not met

Problem: Answer whether apparent KD of MS2 coat protein of AAGAACGUAGGAUAUACAUGAGGAUCACCCAUGUAAAAGAAAGAGGGAAAAGAGAAAAGUAGAAGGACGAAGAA [Cleopatra II] is greater than or equal to 0.05 µM.
Result: Not met
